Data provenance is PubChem BioAssay AID1895.

Target: MEK5 PB1 domain binding to MEKK2 (MAP3K2) mutant PB1, human
Experiment: mutant MEKK2 PB1-MEK5 interaction blockers – biochemical, bead multiplex flow cytometry, dose response (AID 1895)
Conditions: Bead-based multiplex flow cytometry
The source made the active and inactive calls. How the calls were made is not given here.
Assign a class; possible classes are T = active, F = inactive

The following molecules have reported results that may help.
{"molecule": "CCCCn1c(O)c(/C=C/C=C/C=Nc2ccccc2)sc1=S", "group": "F"}
{"molecule": "O=C(NNc1c2ccccc2nc2ccccc12)c1cc2ccccc2cc1O", "group": "F"}
{"molecule": "CCN1/C(=C/C=C/C=C/C=C/c2sc3ccccc3[n+]2CC)Sc2ccccc21", "group": "F"}
{"molecule": "CN(C)CCCN(C(=O)c1ccc2c(c1)CCCC2)c1nc2ccc(Cl)cc2s1", "group": "F"}
{"molecule": "CCNc1ccc2noc3c2c1C(=O)c1ccccc1-3", "group": "T"}

Incoming: For Cc1cc(N=Nc2ccc(C)c(N=Nc3cc(C)c(N)cc3N)c2)c(N)cc1N , what call appears in the results of this test?
Outgoing: F

Incoming: For CN1CCN(c2ccc(NC(=O)c3ccc(-c4ccc(Cl)cc4)o3)cc2)CC1 , which call appears in the assay record?
Outgoing: F

Incoming: Hello, I am checking results. What call was entered for COc1ccccc1N1CCN(S(=O)(=O)c2ccc(Cl)s2)CC1 ?
Outgoing: F

Incoming: What did the test return for CCCCCc1cc(=O)oc2c(C(CCN3CCCC3)c3ccc(N(C)C)cc3)c(OC)cc(OC)c12 (stereo not given) ?
Outgoing: T

Incoming: Check the results log: what was the call for COc1cc(CNCCc2c[nH]c3ccccc23)ccc1OCc1ccccc1F ?
Outgoing: F

###

Target: MEK5 PB1 domain binding to MEKK2 (MAP3K2) mutant PB1, human
Experiment: mutant MEKK2 PB1-MEK5 interaction blockers – biochemical, bead multiplex flow cytometry, dose response (AID 1895)
Conditions: Bead-based multiplex flow cytometry
Calls of active or inactive are those of the source. No rule for the calls is given here.
// one of y for active, n for inactive, no free text

Some entries whose results are on file:
{"compound": "C#CCOCCOCCOCCNc1nc(N2CCN(C(=O)[C@H](CCC(=O)O)n3cc(C(N)CO)nn3)CC2)nc(N2CCN(C(=O)[C@H](Cc3cc4ccccc4[nH]3)n3cc(C(N)[C@H](C)CC)nn3)CC2)n1 (some centres undefined)", "system under test": "MEK5 PB1 domain binding to MEKK2 (MAP3K2) mutant PB1, human", "group": "n"}
{"compound": "CS(=O)(=O)N1N=C(c2ccccc2)CC1c1ccc2c(c1)OCO2 (centres undefined)", "system under test": "MEK5 PB1 domain binding to MEKK2 (MAP3K2) mutant PB1, human", "group": "n"}
{"compound": "CCN1/C(=C/C(C)=C/c2sc3ccccc3[n+]2CC)Sc2ccccc21", "system under test": "MEK5 PB1 domain binding to MEKK2 (MAP3K2) mutant PB1, human", "group": "n"}
{"compound": "COc1ccc2nc(C)cc(N/N=C/c3ccc(F)cc3)c2c1", "system under test": "MEK5 PB1 domain binding to MEKK2 (MAP3K2) mutant PB1, human", "group": "n"}
{"compound": "CCOC(=O)C(C(=O)OCC)c1cc(Br)c2noc3c2c1C(=O)c1ccccc1-3", "system under test": "MEK5 PB1 domain binding to MEKK2 (MAP3K2) mutant PB1, human", "group": "n"}

Incoming: Per the records of this test, what outcome belongs to COc1ccc(-c2[nH]ncc2CN2CCCCCCC2)c(OC)c1 ?
Outgoing: n

Incoming: Short answer needed: outcome of this test for CCc1ccc(Nc2n[n+](-c3ccccc3)c(-c3ccc(OCc4ccccc4)cc3)s2)cc1 ?
Outgoing: n

Incoming: Field: outcome | Entry: CN(C)CCNc1ncnc2c1sc1nc(-c3ccccc3)c3c(c12)CCCC3
Outgoing: y

Incoming: Look up the recorded call for COc1ccc(-c2csc(N(CCCN(C)C)C(=O)c3ccccc3Cl)n2)cc1 in this test.
Outgoing: n
